molecular target: neuraminidase enzyme N9 from H1N9 virus (Influenza A virus)
Sequence (P03472 whole entry, looked up): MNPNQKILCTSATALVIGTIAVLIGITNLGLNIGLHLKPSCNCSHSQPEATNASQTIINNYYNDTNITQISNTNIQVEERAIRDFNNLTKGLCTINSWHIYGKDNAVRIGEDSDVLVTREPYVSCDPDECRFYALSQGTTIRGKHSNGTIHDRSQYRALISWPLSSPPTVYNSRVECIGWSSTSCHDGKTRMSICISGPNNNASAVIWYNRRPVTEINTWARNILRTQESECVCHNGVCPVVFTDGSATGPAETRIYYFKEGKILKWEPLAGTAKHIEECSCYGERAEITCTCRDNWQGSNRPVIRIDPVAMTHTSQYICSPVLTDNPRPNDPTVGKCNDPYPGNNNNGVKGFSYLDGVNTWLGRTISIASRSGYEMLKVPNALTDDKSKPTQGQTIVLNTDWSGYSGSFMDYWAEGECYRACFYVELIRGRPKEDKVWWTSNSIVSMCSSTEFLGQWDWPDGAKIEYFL

molecule | IC50 [nM]
CCC(CC)C(NC(C)=O)[C@@H]1[C@H](O)[C@@H](C(=O)O)C[C@H]1NC(=N)N (stereo partly shown) | 1.3
